Reference for the values: the FLAb antibody collection (doi:10.7554/elife.23156)

B1: scFv; the commonest letter at each place (parent)
chain 1: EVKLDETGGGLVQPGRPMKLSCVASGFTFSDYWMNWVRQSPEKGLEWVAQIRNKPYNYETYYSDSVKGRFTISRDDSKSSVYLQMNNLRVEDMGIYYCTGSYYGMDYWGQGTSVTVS
chain 2: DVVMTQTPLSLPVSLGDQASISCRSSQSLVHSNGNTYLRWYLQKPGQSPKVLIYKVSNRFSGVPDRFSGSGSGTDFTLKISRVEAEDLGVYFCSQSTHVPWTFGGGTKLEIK

variants of: B1; assay: yeast surface expression (ratio to wild type); higher = more expressed; details: format: scFv 4-4-20, heavy + light
measurement_type: yeast surface expression

chain 1 G104F W108T    0.194
chain 1 Y102H D106I    0.595
chain 1 T28N W33Y    1
chain 1 G100M Y107G    0.575
chain 1 S30F M34C    0.514
chain 1 Y103A G104Y G109T    0.211
chain 1 S30R D31N W36A    0.32
chain 1 T28A D31C N35A    0.411
chain 1 W108N G109P    0.396
chain 1 Y102V Y103G Y107F    1.12
chain 1 G104V M105E    0.637
